- EXPERIMENTAL SYSTEM: ROCK2 (Homo sapiens (Human))
- Sequence (O75116 whole entry, species assumed): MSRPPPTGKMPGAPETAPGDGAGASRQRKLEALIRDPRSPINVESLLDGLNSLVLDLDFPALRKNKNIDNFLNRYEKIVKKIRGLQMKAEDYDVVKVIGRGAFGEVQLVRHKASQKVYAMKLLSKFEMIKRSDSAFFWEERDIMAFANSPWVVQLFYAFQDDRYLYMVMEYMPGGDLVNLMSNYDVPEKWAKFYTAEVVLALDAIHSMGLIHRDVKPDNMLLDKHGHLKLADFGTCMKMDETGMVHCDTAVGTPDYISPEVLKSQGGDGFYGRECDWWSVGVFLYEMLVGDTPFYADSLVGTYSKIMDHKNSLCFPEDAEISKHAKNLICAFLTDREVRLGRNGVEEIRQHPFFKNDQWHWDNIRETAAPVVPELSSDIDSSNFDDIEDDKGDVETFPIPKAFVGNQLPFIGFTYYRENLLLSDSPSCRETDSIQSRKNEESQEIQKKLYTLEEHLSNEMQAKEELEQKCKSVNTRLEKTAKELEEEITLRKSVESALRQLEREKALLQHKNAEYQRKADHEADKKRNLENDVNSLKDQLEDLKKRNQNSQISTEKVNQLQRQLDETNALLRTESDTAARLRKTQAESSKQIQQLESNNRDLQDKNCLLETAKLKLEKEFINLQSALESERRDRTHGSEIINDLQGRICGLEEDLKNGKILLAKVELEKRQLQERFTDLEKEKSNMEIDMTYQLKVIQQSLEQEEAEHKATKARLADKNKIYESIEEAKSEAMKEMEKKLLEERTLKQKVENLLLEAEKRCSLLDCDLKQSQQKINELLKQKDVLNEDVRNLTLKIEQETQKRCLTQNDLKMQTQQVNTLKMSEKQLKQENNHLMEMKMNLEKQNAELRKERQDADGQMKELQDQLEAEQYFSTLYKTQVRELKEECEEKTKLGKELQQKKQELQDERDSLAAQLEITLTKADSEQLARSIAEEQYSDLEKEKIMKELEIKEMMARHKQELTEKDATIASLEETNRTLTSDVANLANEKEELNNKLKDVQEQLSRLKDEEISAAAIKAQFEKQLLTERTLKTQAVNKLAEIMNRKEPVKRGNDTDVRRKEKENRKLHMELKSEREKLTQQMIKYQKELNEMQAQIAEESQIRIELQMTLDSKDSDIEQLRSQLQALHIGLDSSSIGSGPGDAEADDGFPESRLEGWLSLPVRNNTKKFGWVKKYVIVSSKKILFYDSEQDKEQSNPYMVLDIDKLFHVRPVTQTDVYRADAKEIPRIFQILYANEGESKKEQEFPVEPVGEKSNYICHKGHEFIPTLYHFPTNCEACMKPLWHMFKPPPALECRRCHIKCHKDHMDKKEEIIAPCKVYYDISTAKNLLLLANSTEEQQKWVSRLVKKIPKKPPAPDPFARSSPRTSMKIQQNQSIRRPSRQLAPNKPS
pIC50: −log10 of the molar value.
Assign MET to entries whose pIC50 meets or exceeds 7; assign NOT MET to the rest.

Form field: pIC50 at least 7? Entry: C[C@@H](NC(=O)c1ccc(-c2cn[nH]c2)c(N(C)C)c1)c1ccc(F)cc1 [Example 296]
MET

Form field: pIC50 at least 7? Entry: COc1cccc([C@@H](C)NC(=O)c2ccc(-c3cn[nH]c3)cc2OCCN(C)C)c1 [Example 308]
MET

Form field: pIC50 at least 7? Entry: COc1cc(C(=O)N(C)Cc2ccccc2)ccc1-c1cn[nH]c1 [Example 71]
NOT MET

Form field: pIC50 at least 7? Entry: Cc1cc(C(=O)N[C@H](CC(=O)NCC(C)(C)O)c2ccccc2)ccc1-c1cn[nH]c1 [Example 253]
NOT MET

Form field: pIC50 at least 7? Entry: COc1cc(C(=O)NC[C@H](C)c2ccccc2)ccc1-c1cn[nH]c1 [Example 117]
MET

Form field: pIC50 at least 7? Entry: COc1cc(C(=O)NC(C)c2ccccc2OC)ccc1-c1cn[nH]c1 (stereo in doubt) [Example 173]
MET

Form field: pIC50 at least 7? Entry: COc1cc(C(=O)NCC(O)c2ccccc2Cl)ccc1-c1cn[nH]c1 (centres unmarked) [Example 122]
MET

Form field: pIC50 at least 7? Entry: CC(NC(=O)c1ccc(-c2cn[nH]c2)c(C(F)F)c1)c1ccccc1F (single isomer, unassigned) [Example 301]
NOT MET

###

Record: IC50 reported on ROCK1 (Homo sapiens (Human)).
Sequence (Q13464 whole entry, species assumed): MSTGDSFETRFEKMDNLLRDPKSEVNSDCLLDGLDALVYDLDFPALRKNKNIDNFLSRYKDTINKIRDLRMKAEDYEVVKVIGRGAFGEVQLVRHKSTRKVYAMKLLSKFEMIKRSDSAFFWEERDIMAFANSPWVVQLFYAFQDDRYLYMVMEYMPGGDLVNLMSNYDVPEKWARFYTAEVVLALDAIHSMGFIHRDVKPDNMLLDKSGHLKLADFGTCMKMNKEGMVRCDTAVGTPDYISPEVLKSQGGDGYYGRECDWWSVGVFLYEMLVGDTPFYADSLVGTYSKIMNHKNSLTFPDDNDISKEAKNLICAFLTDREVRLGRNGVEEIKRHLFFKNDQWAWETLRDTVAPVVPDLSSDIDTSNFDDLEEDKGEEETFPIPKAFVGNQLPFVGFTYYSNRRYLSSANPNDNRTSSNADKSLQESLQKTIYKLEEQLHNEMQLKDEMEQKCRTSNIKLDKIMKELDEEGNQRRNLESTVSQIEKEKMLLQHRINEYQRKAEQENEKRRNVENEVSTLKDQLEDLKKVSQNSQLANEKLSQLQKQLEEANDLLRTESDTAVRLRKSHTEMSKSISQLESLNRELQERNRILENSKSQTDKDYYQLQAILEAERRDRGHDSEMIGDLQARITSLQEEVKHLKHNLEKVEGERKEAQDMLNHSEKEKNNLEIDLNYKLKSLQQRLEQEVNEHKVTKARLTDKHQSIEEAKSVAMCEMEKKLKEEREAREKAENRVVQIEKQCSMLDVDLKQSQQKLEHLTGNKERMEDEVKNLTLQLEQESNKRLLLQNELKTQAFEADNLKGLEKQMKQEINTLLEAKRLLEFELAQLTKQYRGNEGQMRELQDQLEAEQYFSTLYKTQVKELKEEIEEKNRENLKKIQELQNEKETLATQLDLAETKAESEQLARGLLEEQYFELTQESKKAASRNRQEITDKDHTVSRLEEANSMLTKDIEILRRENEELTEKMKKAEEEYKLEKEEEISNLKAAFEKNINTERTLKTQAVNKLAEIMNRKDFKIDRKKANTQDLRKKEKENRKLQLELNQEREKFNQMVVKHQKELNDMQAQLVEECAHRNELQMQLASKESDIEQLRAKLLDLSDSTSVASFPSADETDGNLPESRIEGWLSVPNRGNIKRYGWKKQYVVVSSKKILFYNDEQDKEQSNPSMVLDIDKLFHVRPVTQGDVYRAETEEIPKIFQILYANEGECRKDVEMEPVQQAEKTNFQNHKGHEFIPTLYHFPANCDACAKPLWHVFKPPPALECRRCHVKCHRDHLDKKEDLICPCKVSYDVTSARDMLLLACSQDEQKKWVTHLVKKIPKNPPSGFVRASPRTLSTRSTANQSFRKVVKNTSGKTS

Recorded IC50 of COc1cc(C(=O)NCc2ccc3nc(N)sc3c2)ccc1-c1cn[nH]c1 , please.
1240 nM

Recorded IC50 of COc1cc(-c2cn[nH]c2)cc(F)c1C(=O)N[C@H](C)c1ccccc1 , please.
> 2000 nM

Recorded IC50 of COc1cc(-c2cn[nH]c2)ccc1C(=O)NCc1ccc(F)cc1Cl , please.
3.26 nM

Recorded IC50 of COc1cc(-c2cn[nH]c2)ccc1C(=O)NC(CCN(C)C)c1ccccc1 (stereo not drawn) , please.
174 nM

Recorded IC50 of CNc1cc(C(=O)N[C@H](C)c2ccc(F)cc2)ccc1-c1cn[nH]c1 , please.
1760 nM

Recorded IC50 of C[C@@H](NC(=O)c1ccc(-c2cn[nH]c2)c(CO)c1)c1ccc(F)cc1 , please.
3450 nM

Recorded IC50 of C[C@@H](NC(=O)c1ccc(-c2cn[nH]c2)c(S(C)(=O)=O)c1)c1ccccc1 , please.
> 2000 nM

Recorded IC50 of CCc1ccccc1CNC(=O)c1ccc(-c2cn[nH]c2)c(OC)c1 , please.
36.4 nM

Recorded IC50 of COc1cc(C(=O)N(C)Cc2ccccc2)ccc1-c1cn[nH]c1 , please.
1340 nM

###

I'd be grateful if you could share measured pIC50 for these entries.
FYI, pIC50 means -log10 of a concentration in mol per litre.

Request: pIC50, test system ROCK2 (Homo sapiens (Human), UniProt O75116), entry COc1cc(C(=O)NCc2ccc(Cl)cc2S(=O)(=O)CC(C)C)ccc1-c1cn[nH]c1
5.85

Request: pIC50, test system ROCK2 (Homo sapiens (Human), UniProt O75116), entry C[C@@H](NC(=O)c1ccc(-c2cn[nH]c2)c(OC(F)F)c1)c1ccccc1
8.40

Request: pIC50, test system ROCK2 (Homo sapiens (Human), UniProt O75116), entry COc1cc(-c2cn[nH]c2)ccc1C(=O)NC(c1ccccc1F)C(C)(C)O (centres unmarked)
6.70

Request: pIC50, test system ROCK2 (Homo sapiens (Human), UniProt O75116), entry COc1cc(C(=O)NCc2c(F)cccc2Cl)ccc1-c1cn[nH]c1
8.44

Request: pIC50, test system ROCK2 (Homo sapiens (Human), UniProt O75116), entry COc1cc(C(=O)NCCc2ccc(C(F)(F)F)cc2)ccc1-c1cn[nH]c1
7.11

Request: pIC50, test system ROCK2 (Homo sapiens (Human), UniProt O75116), entry COc1cc(C(=O)NCc2ccccc2C(F)(F)F)ccc1-c1cn[nH]c1
7.68

Request: pIC50, test system ROCK2 (Homo sapiens (Human), UniProt O75116), entry CCOc1cc(C(=O)N[C@H](CO)c2ccccc2)ccc1-c1cn[nH]c1
7.94

Request: pIC50, test system ROCK2 (Homo sapiens (Human), UniProt O75116), entry COc1ccc(F)c(C(C)NC(=O)c2ccc(-c3cn[nH]c3)cc2OC)c1 (centres unmarked) [Example 203];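 further: reaction stopped with EDTA, then phosphorylated and unphosphorylated peptide resolved by microfluidic electrophoresis, kinase inhibition computed at each compound concentration in dose-response series, DMSO under 2%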
8.18
